Quick reference: normalized growth of the listed items.
# procedure_summary: chemical genetic growth profiling, strain panel (AID 1159580);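 also: tested at 20 µM; growth read once vehicle control cultures reached saturation at 30 °C; 1 = growth at the plate median or of vehicle wells; lower values mean less growth of the strain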
# condition_info: S. cerevisiae deletion strains, growth OD, locus YLR384C, strain iki3, active compounds read low
About 2,000 (36%) of roughly 5,500 compounds were called active. Roughly 18% stayed inconclusive and do not appear here. The list shows a part of the results.

Use the examples below as a reference point.
compound	normalized growth
CN(C)CCc1c[nH]c2ccc(CS(=O)(=O)N3CCCC3)cc12	0.983 (inactive)
Cc1onc(-c2ccccc2)c1C(=O)NC1C(=O)N2[C@@H]1SC(C)(C)[C@@H]2C(=O)O (some centres undefined)	1.03 (inactive)
C=C(C)[C@@H]1CC[C@]2(CO)CC[C@]3(C)[C@H](CCC4[C@@]5(C)CC[C@H](O)C(C)(C)C5CC[C@]43C)C12 (some centres undefined)	1.01 (inactive)

Data request, read-out normalized growth, for `Cc1onc(-c2c(Cl)cccc2Cl)c1C(=O)N[C@@H]1C(=O)N2[C@@H]1SC(C)(C)[C@@H]2C(=O)O`
0.977 (inactive)

Data request, read-out normalized growth, for `CC1(C)S[C@@H]2[C@H](NC(=O)Cc3ccccc3)C(=O)N2[C@H]1C(=O)O`
1.03 (inactive)

###

# procedure_summary: chemical genetic growth profiling, strain panel (AID 1159580);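 also: tested at 20 µM; growth read once vehicle control cultures reached saturation at 30 °C; 1 = growth at the plate median or of vehicle wells; lower values mean less growth of the strain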
# condition_info: S. cerevisiae deletion strains, growth OD, locus YNL322C, strain KRE1, active compounds read low
Among all 5,500 compounds or so, about 2,000 (36%) were called active. About 18% were inconclusive and are not listed. The list shows a part of the results.
value_type: normalized growth
Please give only the number in your answer, with no unit.

Use the examples below as a reference point.
molecule	normalized growth
CN(C)CCc1c[nH]c2ccc(CS(=O)(=O)N3CCCC3)cc12	0.999
O/N=C\c1sccc1Oc1ccccc1	0.988
CC(=O)OCC(=O)[C@@]12OC3(CCCC3)O[C@@H]1CC1C3CCC4=CC(=O)C=C[C@]4(C)[C@@]3(F)[C@@H](O)C[C@@]12C (some centres undefined)	1.01
CCN(CC)C(=O)c1ccc(O)c(OC)c1	1.03
Cn1c(=O)c(-c2ccccc2)c(O)c2ccccc21	0.932

Data request, read-out normalized growth, for CC(=O)OCC(=O)[C@@]1(O)CCC2C3CC[C@@H]4C[C@H](OC(C)=O)CC[C@]4(C)C3C(=O)C[C@@]21C (some centres undefined)
0.998

###

# procedure_summary: chemical genetic growth profiling, strain panel (AID 1159580);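 also: tested at 20 µM; growth read once vehicle control cultures reached saturation at 30 °C; 1 = growth at the plate median or of vehicle wells; lower values mean less growth of the strain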
# condition_info: S. cerevisiae deletion strains, growth OD, locus YOR231W, strain MKK1, active compounds read low
The campaign covered roughly 5,500 compounds. About 2,000 (36%) were called active. Not shown: some 18% with an inconclusive outcome. The list shows a part of the results.
value_type: normalized growth

Use the examples below as a reference point.
molecule	data_value
CNC(Cc1c[nH]c2ccccc12)C(=O)O (stereo not given)	1 (inactive)
O=C(CCc1ccc(O)cc1)c1c(O)cc(O)cc1O[C@@H]1O[C@H](CO)[C@@H](O)[C@H](O)[C@H]1O	0.993 (inactive)
COc1cnc(NS(=O)(=O)c2ccc(N)cc2)nc1	0.99 (inactive)

Data request, read-out normalized growth, for `CC(=O)Oc1cccc2c1C(=O)c1c(OC(C)=O)cc(C(=O)O)cc1C2=O`
0.95 (inactive)

Data request, read-out normalized growth, for `CS/C(Nc1cccc(C(F)(F)F)c1)=C(/C#N)S(=O)(=O)c1ccc(Cl)cc1`
0.94 (inactive)

Data request, read-out normalized growth, for COC(=O)C[C@H]1C(C)(C)[C@@H](O)[C@@H]2CC3=C4C=C(OC)O[C@@H](c5ccoc5)[C@]4(C)CCC3[C@@]1(C)C2=O (stereo not given in full)
0.98 (inactive)

Data request, read-out normalized growth, for `COc1cccc(O)c1O`
1.01 (inactive)

Data request, read-out normalized growth, for `COc1c2occc2c(OC)c2c(=O)cc(C)oc12`
0.997 (inactive)

Data request, read-out normalized growth, for `NC(N)=NC(N)=Nc1ccccc1`
1.01 (inactive)

Data request, read-out normalized growth, for `CNCC[C@@H](Oc1ccccc1)c1ccccc1`
1.01 (inactive)

Data request, read-out normalized growth, for CN1C(=O)CCS(=O)(=O)C1c1ccc(Cl)cc1 (stereo not given)
0.996 (inactive)

Data request, read-out normalized growth, for `C/C(=N/NC(=O)c1ccc(C(C)(C)C)cc1)c1ccccc1O`
0.952 (inactive)

Data request, read-out normalized growth, for OC(c1cc(C(F)(F)F)nc2c(C(F)(F)F)cccc12)C1CCCCN1 (stereo not given)
0.959 (inactive)
